Form field: relative integration efficiency (log2) (one value per entry).
# System: VchCAST RNA-guided transposition machinery (E. coli BL21(DE3) host, lacZ target)
# Method: relative integration efficiency (T-RL orientation) vs wild-type transposon end (log2 (normalized fold change)); transposon end mutated: left end; higher = more efficient transposition

Sequence data	relative integration efficiency (log2)
AATGTTGTTGATGCAACCATAAAGTGATATTTAATAAGGCGGGCGCCGACTACCAGGCCAACACCCCACCAACGCGCGGTCGCGAGACACCCCACCAACGCCTGGTCGCGGGGGTGTCCGATCTGATTTCAGCAAAACTACTGCAGTAAGAA	-7.05
AATGTTGTTGATGCAACCATAAAATGATAATTAATAATTATTTATAATCAGCAACTTAACCACAAAACAACCATAAGTTGATATTTTACAAAAGTTGGTATTCAACTATAAAATGTGAATCGAGTATTTCAGCAAAACTACTGCAGTAAGAA	-2.24
AATGTTGTTGATGCAACCATAAAGTGATATTTAATAATTATTTATAATCAGCAACCAACCATATATTGATATCTCTTAACCACAAAAACAAAACAACCATAAGTTGATATTTTTGTGAATCGAGTATTTCAGCAAAACTACTGCAGTAAGAA	-5.89
AATGTTGTTGATGCAACCATAAAGTGATATTTAATAATTATTTATAATCAGCAACTTAACCACAACCATATATTGATATCTCACAAAACAACCATAAGTTGATATTTTTGTGAATCGAGTATTTCAGCAAAACTACTGCAGTAAGAAAGTTA	-5.27
AATGTTGTTGATGCAACCATAAAGTGATATTTAATAATTATTTATAATCAGCAACTTAACCACAAAACAACCATATATTGATATCTCACAACAACCATAAGTTGATATTTTTGTGAATCGAGTATTTCAGCAAAACTACTGCAGTAAGAAAG	-3.43
AATGTTGTTGATGCAACCATAAAGTGATCGGGCATAATTATTTATAATCAGCAACTTAACCACAAAACAACCATATATTGATCGAGAACAAAACAACCATAAGTTGATCGGGGTGTGAATCGAGTATTTCAGCAAAACTACTGCAGTAAGAA	-3.68
AATGTTGTTGATGCAACCATAAAGTGATATTTAATAATTATTTATAATCAGCAACTTAACCACAAAACAACCATATATTTCGCGAGACACCCCACCAACGCCTGGTCGCGGGGGTGTCCGATCTGATTTCAGCAAAACTACTGCAGTAAGAA	-6
AATGTTGTTGATGCAACCATAAAGTGATATTTAATAATTATCAACCATATATTGATATCTCACAAAACAACCATAAGTTGATATTTTTGTGAATCGAGTATTTCAGCAAAACTACTGCAGTAAGAAAGTTACTTCGTGGTATGGGAGGATCA	-7.99
AATGTTGTTGATGCAACCATAAAGTGATATTTATACCGTTCGTATAATGTATGCTATACCAAGTTATCAACCATATATTGATATCTCACAAAACAACCATAAGTTGATATTTTTGTGAATCGAGTATTTCAGCAAAACTACTGCAGTAAGAA	-4.32
AATGTTGTTGATGCAACCATAAAGTGATATTTAATAATTATTTATAATCAGCAACTTAACCACAAAACAACCATATATTGATAACAAAACAACCATAAGTTGATATTTTTGTGAATCGAGTATTTCAGCAAAACTACTGCAGTAAGAAAGTT	-4.08
